system: UACC-257 melanoma; assay: NCI-60 one-dose screen, 48 h (100 = growth as untreated, 0 = no growth, -100 = all killed); details: 10 µM unless noted
This is part of a sample that, as a whole, favours compounds with a hit. Of some 83,000 tested, about 20% had one in any assay.
Readout kind: growth (%)
Return type: number; implicit unit %.

Data request: Consider the compound FC(F)(F)Sc1ccc(/C=C/c2cc(/C=C/c3ccc(SC(F)(F)F)cc3)n(-c3ccccc3)n2)cc1 . State its measured growth.
Data returned: 86.4

Data request: Complete the entry with growth for O=C(CCN1CCOCC1)Nc1cccc(-n2cc(-c3ccncc3)c(-c3ccc(Cl)c(O)c3)n2)c1
Data returned: 66.2

Data request: Identify measured growth corresponding to N#Cc1ccccc1OCC(=O)Nc1nc2c(s1)COc1ccccc1-2
Data returned: 112

Data request: Give the measured growth for COC(=O)c1[nH]nc(OC)c1C1(C(C#N)c2nc3ccccc3s2)CCCc2ccccc21 (stereo unspecified)
Data returned: 101

Data request: Write down growth measured for item CC/C=C\C/C=C\C[C@H](O)C/C=C1/C(=O)C=C[C@@H]1C/C=C\CCCC(=O)OC
Data returned: -13.9

Data request: Item Cc1cnc(C(=O)NNc2nc3sc4c(c3c(=O)[nH]2)C(C)CCC4)cn1 (stereo unspecified) : provide growth
Data returned: 1.78

Data request: Note down growth recorded for N#CC1=C(N)Oc2c(sc3c(Br)cccc23)C1c1ccccn1 (stereo unspecified)
Data returned: 51.1

Data request: Supply measured growth of COc1ccc(C(=O)N/N=C/c2ccc(O)cc2O)cc1Nc1ccnc(C(F)(F)F)c1 in your reply.
Data returned: 33.1

Data request: Retrieve growth measured for O=c1c(/C=C/c2ccco2)nnc2sc(Nc3ccc(Cl)cc3)nn12 and print it.
Data returned: 104

Data request: Tell me its growth given O=C1C(=C(O)c2ccccc2)C(=O)c2ccccc21 as the entry.
Data returned: 108

Data request: Respond only with growth recorded for C=C(CN1CC=CCC1)[C@@H]1CC[C@]2(COC(C)=O)CC[C@]3(C)[C@H](CC[C@@H]4[C@@]5(C)CC[C@H](O)C(C)(C)[C@@H]5CC[C@]43C)[C@@H]12
Data returned: 99.4

Data request: For O=C1/C(=C/c2ccc(-c3cccc(C(F)(F)F)c3)o2)SC(=S)N1CCc1ccc(O)cc1 , write its growth.
Data returned: 95

Data request: Report growth for CCOC(=O)C(=CCC(C)C)C(=O)OCC
Data returned: 110

Data request: Fill in growth for record COc1ccc(/C(C)=C(\c2ccc(OCCN3CCCCCC3)cc2)c2ccc(OC(=O)C3CCCCC3)cc2)cc1
Data returned: -71.4

Data request: Look up and state reported growth for Cc1cc(N2CCN(CC(=O)Nc3ccc4c(ccn4Cc4ccccc4)c3)CC2)nc(N2CCCCCC2)n1
Data returned: 42.8

Data request: Given CN1CCN(CCNC(=O)c2cccc(CN3c4cccc5c4C(=Cc4cccnc43)N(C)C5=O)c2)CC1 , respond with its growth.
Data returned: 50

Data request: Please supply the value of reported growth for the item COc1cc(/C=N/NC(=O)CCN2c3ccccc3Sc3ccccc32)cc(OC)c1OC
Data returned: 92.7

Data request: Supply measured growth of COc1ccc(/C=C/C(=O)c2cc3c(N)c(C(=O)Nc4ccccc4Cl)sc3nc2C)cc1 in your reply.
Data returned: 63.8

Data request: Find the measured growth of CCOC(=O)c1nc2c3ccccc3cnn2c1C(=O)c1ccc(OC)cc1 and report it.
Data returned: 95.4

Data request: Dear colleague, please send me the reported growth for [2H]C([2H])([2H])Oc1cccc(/C=C/C(=O)/C=C(/C=C/c2cccc(OC([2H])([2H])[2H])c2OC([2H])([2H])[2H])OB(F)F)c1OC([2H])([2H])[2H] when you can.
Data returned: 64.5

Data request: Entry CS(=O)(=O)Nc1cc(-c2ccc3ncnc(Nc4ccc(F)c(Cl)c4)c3c2)cnc1Cl needs its growth filled in; supply it.
Data returned: 4.62

Data request: Specify growth for Clc1nccc2c(-c3csc(-c4c[nH]c5ccc(Br)cc45)n3)c[nH]c12 and stop.
Data returned: -48.9

Data request: Answer with the recorded growth of Cc1ccc(/C=C2\COc3ccc(O)c(O)c3C2=O)cc1 only.
Data returned: 10.1

Data request: // Input: Nc1nc(N)c2c(n1)NC(c1cccc(Nc3ccnc4cc(C(F)(F)F)ccc34)c1)CC(c1ccc(F)cc1)=N2 (stereo unspecified) . Output its growth only.
Data returned: 74.8

Data request: Given CCNC(=S)n1nc(SC)c(C(=O)OCC)c1N , respond with its growth.
Data returned: 120

Data request: Supply measured growth of COc1ccc(/C=N/NC(=O)CN2CCN(c3cc4c(cc3F)c(=O)c(C(=O)O)cn4C3CC3)CC2)cc1O in your reply.
Data returned: 89.5

Data request: Check the records and state growth for O=C1/C(=C/c2cn(-c3ccccc3)nc2-c2ccccc2)SC(=S)N1c1ccccc1
Data returned: 107

Data request: Respond only with growth recorded for BrC1=C(Br)C(Br)(Br)C(Br)=C1Br
Data returned: 84.7

Data request: For the compound CCN(CC)/C([O-])=c1\cccc\c1=C1\N=C(c2ccccc2)N=C1[n+]1ccc(-c2ccccc2)cc1 , give its reported growth.
Data returned: 92.9

Data request: Specify measured growth for COc1ccc(/C(C)=C(\c2ccc(OCCN3CCOCC3)cc2)c2ccc(OC(=O)C3CCCCC3)cc2)cc1 .
Data returned: 112

Data request: Complete the entry with growth for N#Cc1c(-c2cccc(F)c2)cc(-c2cccnc2)[nH]c1=O
Data returned: 112

Data request: Determine its reported growth: Nc1nc(N)c2c(n1)NC(c1ccc(Cl)cc1)CC(c1cccc(Nc3ccncc3)c1)=N2 (stereo unspecified)
Data returned: 52.3

Data request: Give the reported value of growth for this record: CCCc1cc(C(N)=S)ccn1
Data returned: 112

Data request: Report growth for C=C(CNCCc1ccc(O)cc1)[C@@H]1CC[C@]2(CO)CC[C@]3(C)[C@H](CC[C@@H]4[C@@]5(C)CCC(NCCc6ccc(O)cc6)C(C)(C)[C@@H]5CC[C@]43C)[C@@H]12 (stereo partly specified)
Data returned: -80.5

Data request: Recall and state the measured growth for Cc1ccc(S(=O)(=O)OC[C@@]2(C)CC[C@]3(C)CC[C@]4(C)C(=CC[C@@H]5[C@@]6(C)CCCNC(C)(C)[C@@H]6CC[C@]54C)[C@@H]3C2)cc1 .
Data returned: -58.7

Data request: State its growth for this compound: CCCCCCCCn1ccc2cc(NC(=O)CN3CCN(c4nc(C)cc(N5CCCCC5)n4)CC3)ccc21
Data returned: 115

---

system: SF-295 CNS; assay: NCI-60 one-dose screen, 48 h (100 = growth as untreated, 0 = no growth, -100 = all killed); settings: 10 µM unless noted
Compounds without any hit were thinned out: in the full panel of roughly 83,000, 20% have a hit. The source made the active and inactive calls. Rule for the calls: active = growth percent below 10; inactive = the rest.
Kindly supply the reported growth values for the records listed here.

Data request: Provide the reported growth (system: SF-295 CNS) for O=C(Cc1ccc(F)cc1)c1ccccc1
Data returned: 117% (inactive)

Data request: Find growth for N#C/C(=C\c1ccc(Br)cc1)n1nnc2c(F)cccc21 on SF-295 CNS and write it down.
Data returned: 24.7% (inactive)

Data request: Return reported growth for target or system SF-295 CNS, item O=C1/C(=C/c2ccc(-c3cccc(C(F)(F)F)c3)o2)SC(=S)N1CCc1ccc(O)cc1 .
Data returned: 96.6% (inactive)

Data request: Please look at CCCCSc1ccc2nc(-c3ccc(OCCCN=C(N)N)cc3)cn2c1 and tell me its recorded growth on SF-295 CNS.
Data returned: 52.7% (inactive)

Data request: Report value: growth, system: SF-295 CNS, compound: O=C(NNc1ccccc1)c1ccccc1
Data returned: 64.5% (inactive)

Data request: Param request: growth | system SF-295 CNS | item Cc1ccc(S(=O)(=O)Nc2cc(Sc3ccccc3)c(O)c3ccccc23)cc1
Data returned: 96.8% (inactive)

Data request: Using SF-295 CNS as the test system, report measured growth of O=C(NCc1cccnc1)/C(=C\c1ccc(Br)cc1)S(=O)(=O)c1ccccc1 .
Data returned: 13.9% (inactive)

Data request: // fetch growth for C#CCOc1cccc(Nc2ncc3ncn(C4CCN(C(=O)CCl)C4)c3n2)c1 (stereo not given) ; system: SF-295 CNS
Data returned: 89% [6.25 µM] (inactive)

Data request: For SF-295 CNS, give the measured growth of the entry CCN(CC)CC#CCOC(=O)[C@]1(C)CCC[C@]2(C)c3ccc(C(C)C)cc3CC[C@@H]12
Data returned: 92.8% (inactive)

Data request: Report value: growth, system: SF-295 CNS, compound: C#CCn1cnc2cnc(Nc3cccc(NC(=O)CCl)c3)nc21
Data returned: 16.1% [6.25 µM] (inactive)

Data request: Look up and report growth, with SF-295 CNS as system, for N#C/C(=N\Nc1ccc(Cl)cc1)C(=O)Nc1cc(-c2ccccc2)nn1-c1ccccc1
Data returned: 1.62% (active)

Data request: Please indicate recorded growth of Nc1n[nH]c2cccc(C#Cc3cccc(NC(=O)c4ccc(N5CCOCC5)c(C(F)(F)F)c4)c3)c12 measured with SF-295 CNS.
Data returned: -36.9% (active)

Data request: State the measured growth (SF-295 CNS) of CC1=C2[C@@H](CC1)[C@]1(C)O[C@@](C(C)C)(C[C@H]1OC(=O)CO)[C@H]2OC(=O)C1CC1c1ccccc1 (stereo not given in full)
Data returned: 67.4% (inactive)

Data request: Give growth; test system SF-295 CNS; compound COc1ccc(-c2nnc3n(C)c(=O)c4ccccc4n23)cc1O
Data returned: 11.6% (inactive)

Data request: Give measured growth for CCCCCC#CC1OC23CCCCC2C(C#N)(C(=N)O3)C1(C#N)C#N (stereo not given) (SF-295 CNS).
Data returned: 98.5% (inactive)

Data request: Give growth only, for N#Cc1c(N)nnn1Cc1cc(=O)oc2ccc(O)cc12 , using SF-295 CNS data.
Data returned: 102% (inactive)

Data request: # return growth of C=C(CNCCc1ccc(O)cc1)[C@@H]1CC[C@]2(CO)CC[C@]3(C)[C@H](CC[C@@H]4[C@@]5(C)CCC(NCCc6ccc(O)cc6)C(C)(C)[C@@H]5CC[C@]43C)[C@@H]12 (stereo not given in full) (system: SF-295 CNS)
Data returned: -92.9% (active)

Data request: Provide SF-295 CNS growth reading for COc1ccc(/C=C(\C#N)c2cc3ccccc3[nH]2)cc1 .
Data returned: 35.7% (inactive)

Data request: System SF-295 CNS. Read-out growth. Item CC1(C)C(N)=Nc2cc(OCCCCN3Cc4ccccc4C3)c(OCC3CC3)cc21 . Report value.
Data returned: 84.8% (inactive)

Data request: Report growth under test system SF-295 CNS for CCOC(=O)C1=C(C)N=C2SC=C(c3ccc(F)cc3)N2[C@H]1c1cn(-c2ccccc2)nc1-c1ccc(Cl)cc1 .
Data returned: 99% (inactive)
